The entries below are paired with their reported MIC.
Tested on: Aspergillus niger
Assay: Antifungal activity against Aspergillus niger after 24 hrs by broth microdilution method
Format: functional
metric: MIC

In [3]: df
Out[3]:
                                  molsmiles         measuredon        val
0  CC(C)(CO[N+](=O)[O-])C(=O)N1CCN(c2ccc(OC[C@H]3CO[C@](Cn4ccnc4)(c4ccc(Cl)cc4Cl)O3)cc2)CC1  Aspergillus niger    1.56 µM
1     O=C(CO[N+](=O)[O-])N1CCN(c2ccccc2)CC1  Aspergillus niger  > 2000 µM
2  COCO/N=[N+](\[O-])N1CCN(c2ccc(OC[C@H]3CO[C@](Cn4ccnc4)(c4ccc(Cl)cc4Cl)O3)cc2)CC1  Aspergillus niger       4 µM
3  O=[N+]([O-])OCCN1CCN(c2ccc(OC[C@H]3CO[C@](Cn4ccnc4)(c4ccc(Cl)cc4Cl)O3)cc2)CC1  Aspergillus niger     250 µM

Reference for the values: ChEMBL document CHEMBL1140048
